Would you mind telling me the reported IC50 of each entry?
- Target system: IL-17A/A (Homo sapiens)
- Construct: purchased Genscript Z03228
- Protocol description: IL-17A/A HEK-Blue Cell Assay
- Assay type: cell-based
- Cond: HEK-Blue IL-17A reporter cell line, SEAP readout at A630, 20 hours incubation with IL-17A/A; top concentration 10 uM, 1 uM or 0.3 uM; read-out: IL-17A/A inhibition (pIC50) (converted)

Observed IC50, IL-17A/A (Homo sapiens), CCn1nccc1C(=O)N[C@H](C(=O)Nc1ccc([C@H](C)[C@@H](NC(=O)c2cnns2)C(=O)N2CCN(Cc3ccccc3)CC2)cc1F)[C@H]1CC[C@H](C)CC1 [Compound 441] : < 10 nM

Simply: CCC(=O)N[C@@H](C(=O)N1CC(C(C)(C)O)C1)[C@@H](C)c1ccc(NC(=O)[C@@H](NC(=O)c2nonc2CC)[C@H]2CC[C@H](C)CC2)c(F)c1 [Compound 446] , IL-17A/A (Homo sapiens), IC50 = < 10 nM

The molecule CCc1nonc1C(=O)N[C@H](C(=O)Nc1ccc([C@H](C)[C@@H](NC(=O)N(C)C2CC2)C(=O)N2CCN(C)CC2)cc1F)[C@H]1CC[C@H](C)CC1 [Compound 513] on IL-17A/A (Homo sapiens): IC50 was < 10 nM

Item: CCn1nccc1C(=O)N[C@H](C(=O)Nc1ccc([C@H](C)[C@@H](NS(=O)(=O)CC)C(=O)N2CCN(C)CC2)cc1F)C1CCCCC1 [Compound 313] | System: IL-17A/A (Homo sapiens) | IC50: 10 to 100 nM

// assay IL-17A/A (Homo sapiens), entry CCC(=O)N[C@@H](C(=O)N1CCN(C)CC1)[C@@H](C)c1ccc(NC(=O)[C@@H](NC(=O)c2conc2C(C)C)C2CCCCCC2)c(F)c1 [Compound 268] , IC50 value = < 10 nM

* * *

- Target system: IL-17A/A (Homo sapiens)
- Construct: purchased Genscript Z03228
- Protocol description: IL-17A/A HEK-Blue Cell Assay
- Format: cell-based
- Cond: HEK-Blue IL-17A reporter cell line, SEAP readout at A630, 20 hours incubation with IL-17A/A; top concentration 10 uM, 1 uM or 0.3 uM; read-out: IL-17A/A inhibition (pIC50) (converted)
- Protocol: The HEK-Blue IL-17A reporter cell line (Fisher #NC1408637) was used for cell-based IL-17A/A inhibition assays. Cells were grown and prepared for assays according to the manufacturer's instructions. […] Media from the cells is then added to a development reagent (Quanti-Blue Substrate, Fisher #NC9711613), and read at A630. […]
Please respond with reported IC50 for every item in the list.

IC50 recorded for this compound, CCn1nccc1C(=O)N[C@H](C(=O)Nc1ccc(C[C@@H](NC(=O)c2cnns2)C(=O)N2CCN(C)CC2)cc1F)C1CCCCC1 [Compound 322] , is 10 to 100 nM

// IC50 lookup, compound = CCc1nonc1C(=O)N[C@H](C(=O)Nc1ccc([C@H](C)C(NC(=O)C(C)F)C(=O)N2CCN(C)[C@H](C)C2)cc1F)[C@H]1CC[C@H](C)CC1 (single isomer, unassigned) [Compound 599] , result: < 10 nM

So for CCc1nonc1C(=O)N[C@H](C(=O)Nc1ccc([C@H](C)[C@@H](NC(=O)C(C)C)C(=O)N2CCN(C)CC2)cc1F)[C@H]1CC[C@H](C)CC1 [Compound 494] , the logged IC50 turned out to be < 10 nM

Lab note: measured IC50 of CCC(=O)NC(C(=O)N1CCN(Cc2ccccc2)CC1)[C@@H](C)c1ccc(NC(=O)[C@@H](NC(=O)c2ccnn2CC)[C@H]2CC[C@H](C)CC2)c(F)c1 (some centres unmarked) [Compound 367] was 10 to 100 nM

Record summary for CCc1nonc1C(=O)N[C@H](C(=O)Nc1ccc([C@H](C)[C@@H](NC(=O)CC2CC2)C(=O)N2CCN(C)[C@@H](C)C2)cc1F)[C@H]1CC[C@H](C)CC1 [Compound 506] : reported IC50 = < 10 nM

* * *

- Target system: IL-17A/A (Homo sapiens)
- Construct: purchased Genscript Z03228
- Protocol description: IL-17A/A HEK-Blue Cell Assay
- Assay type: cell-based
- Cond: HEK-Blue IL-17A reporter cell line, SEAP readout at A630, 20 hours incubation with IL-17A/A; top concentration 10 uM, 1 uM or 0.3 uM; read-out: IL-17A/A inhibition (pIC50) (converted)
Hi there, I'd appreciate the recorded IC50 for every entry that follows.

IC50 reported for this molecule CCC(=O)N[C@@H](C(=O)N1CCN(C)CC1)[C@@H](C)c1ccc(NC(=O)[C@@H](NC(=O)C(F)(F)C2CCCCC2)C2CCCCC2)c(F)c1 [Compound 252] : 10 to 100 nM

The reported IC50 of the molecule CCC(=O)N[C@@H](C(=O)N1CCN(C)CC1)[C@@H](C)c1ccc(NC(=O)[C@@H](NC(=O)C(F)(F)c2csc(C)c2)[C@H]2CC[C@H](C)CC2)c(F)c1 [Compound 276] was 10 to 100 nM

IC50 measured on CCC(=O)N[C@@H](C(=O)N1CCOCC1)[C@@H](C)c1ccc(NC(=O)[C@@H](NC(=O)C(F)(F)c2cccc(C#N)c2)C2CCCCCC2)c(F)c1 [Compound 349] = < 10 nM

Please fill in: IC50 reported for CC(C)n1nccc1C(=O)N[C@H](C(=O)Nc1ccc([C@H](C)[C@@H](NC(=O)c2cnns2)C(=O)N2CCN(C)CC2)cc1F)C1CCCCC1 [Compound 312] = < 10 nM

Given item [2H]C1([2H])N(C)C([2H])([2H])C([2H])([2H])N(C(=O)[C@H](NC(=O)CC)[C@@H](C)c2ccc(NC(=O)[C@@H](NC(=O)c3ccnn3CC)[C@H]3CC[C@H](C)CC3)c(F)c2)C1([2H])[2H] [Compound 573] , the value recorded as its IC50 is < 10 nM

Consider CCC(=O)N[C@@H](C(=O)N1CCN(C(C)C)CC1)[C@@H](C)c1ccc(NC(=O)[C@@H](NC(=O)c2ccnn2CC)C2CCCCC2)c(F)c1 [Compound 362] . Its measured IC50 is 10 to 100 nM

Summary for this molecule, CCC(=O)N[C@@H](C(=O)N1CCN(C)CC1)[C@@H](C)c1ccc(NC(=O)C(NC(=O)c2ccnn2CC)C(C)c2ccc(C)cc2)c(F)c1 (single isomer, unassigned) [Compound 294] : IC50 is 10 to 100 nM

The molecule listed as CCc1nonc1C(=O)N[C@H](C(=O)Nc1ccc([C@H](C)[C@@H](NC(=O)c2ccnn2C)C(=O)N2CCN(C)CC2)cc1F)[C@H]1CC[C@H](C)CC1 [Compound 490] has a reported IC50 of 10 to 100 nM

Entry CCC(=O)N[C@@H](C(=O)N1CCS(=O)(=O)CC1)[C@@H](C)c1ccc(NC(=O)[C@@H](NC(=O)c2ccnn2CC)[C@H]2CC[C@H](C)CC2)c(F)c1 [Compound 392] , IC50 reported as 10 to 100 nM

// IC50 value for CC(C)NC(=O)N[C@@H](C(=O)N1CCN(C)CC1)[C@@H](C)c1ccc(NC(=O)[C@@H](NC(=O)c2ccnn2C(C)C)C2CCCCCC2)c(F)c1 [Compound 328] : 10 to 100 nM

Reported IC50 ( CCn1nccc1C(=O)N[C@H](C(=O)Nc1ccc([C@H](C)[C@@H](NC(=O)C2CC2)C(=O)N2CCN(C)CC2)cc1F)[C@H]1CC[C@H](C)CC1 [Compound 469] ) = 10 to 100 nM

* * *

For each record, write down the corresponding IC50.
- Target system: IL-17A/A (Homo sapiens, UniProt Q16552)
- Construct: purchased Genscript Z03228
- Sequence (Q16552 24-155): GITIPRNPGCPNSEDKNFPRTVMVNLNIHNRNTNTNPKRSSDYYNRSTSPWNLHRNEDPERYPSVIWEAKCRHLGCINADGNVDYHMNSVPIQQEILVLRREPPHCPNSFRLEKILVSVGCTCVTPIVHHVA
- Protocol description: IL-17A/A HEK-Blue Cell Assay
- Type: cell-based
- Cond: HEK-Blue IL-17A reporter cell line, SEAP readout at A630, 20 hours incubation with IL-17A/A; top concentration 10 uM, 1 uM or 0.3 uM; read-out: IL-17A/A inhibition (pIC50) (converted)
- Experimental: The HEK-Blue IL-17A reporter cell line (Fisher #NC1408637) was used for cell-based IL-17A/A inhibition assays. Cells were grown and prepared for assays according to the manufacturer's instructions. […] Media from the cells is then added to a development reagent (Quanti-Blue Substrate, Fisher #NC9711613), and read at A630. […]

Looking up CCC(=O)N[C@@H](C(=O)N1CCC(Oc2ccccc2)CC1)[C@@H](C)c1ccc(NC(=O)[C@@H](NC(=O)c2ccnn2CC)[C@H]2CC[C@H](C)CC2)c(F)c1 , I found its IC50 recorded as 10 to 100 nM

# IC50 of COc1cncc(C(F)(F)C(=O)N[C@H](C(=O)Nc2ccc(C[C@@H](NC(=O)c3cnns3)C(=O)N3CCN(C)CC3)cc2F)C2CCCCC2)c1 = 10 to 100 nM

# IC50 of CCC(=O)N[C@@H](C(=O)N1CCN(C)C[C@@H]1C)[C@@H](C)c1ccc(NC(=O)[C@@H](NC(=O)c2nonc2CC)[C@H]2CC[C@H](C)CC2)c(F)c1 = < 10 nM

IC50 in this record for CCn1nccc1C(=O)N[C@H](C(=O)Nc1ccc([C@H](C)[C@@H](NC(=O)[C@H](C)OC)C(=O)N2CCN(C)CC2)cc1F)[C@H]1CC[C@H](C)CC1 : < 10 nM

The reported value for CCC(=O)NC(Cc1ccc(NC(=O)[C@@H](NC(=O)c2ccnn2CC)C2CCCCC2)c(F)c1)C(=O)N1CCN2CCOCC2C1 (some centres unmarked) in terms of IC50 is 100 to 10000 nM
